All figures here come from patent US12084436B2.

Measured inhibition at 10 µM, listed per entry.
target: HDAC6 enzyme (Homo sapiens); construct: prepared by transducing full length HDAC6 gene into Sf-9 insect cells; GST; purchased SignalChem; host or cells: Sf-9 insect cells; test: HDAC6 enzyme inhibitory assay (HDAC-Glo I/II Assay kit, luminescence); format: biochemical; conditions: 10 μM test compound; wells without enzyme = 100% inhibition; read-out: HDAC6 inhibitory rate (%) (10 μM)
observation type: inhibition at 10 µM

compound | study target | measured value
Fc1cc(-c2nnc(C(F)F)o2)cc(-c2nccn2CC2CCC(F)(F)CC2)c1 [Example 28a] | HDAC6 enzyme (Homo sapiens) | 99%
CN(Cc1cccc2cnccc12)N1Cc2ccc(-c3nnc(C(F)F)o3)cc2C1=O [Example 47c] | HDAC6 enzyme (Homo sapiens) | 100%
Fc1cccc(Cn2c(Br)cnc2-c2cc(-c3nnc(C(F)F)o3)ccn2)c1 [Example 74a] | HDAC6 enzyme (Homo sapiens) | 99%
CN1C(=O)c2cc(-c3nnc(C(F)F)o3)cnc2CC1(C)c1ccc(F)cc1 (stereo not drawn) [Example 25b] | HDAC6 enzyme (Homo sapiens) | 100%
Fc1cc(-c2nnc(C(F)F)o2)cc(-c2ncccc2OC2CCOCC2)c1 | HDAC6 enzyme (Homo sapiens) | 98%
FC(F)c1nnc(-c2ccnc(-c3ncc(Cl)n3Cc3ccccn3)c2)o1 [Example 38a] | HDAC6 enzyme (Homo sapiens) | 98%
CN(CC1CCOCC1)N1Cc2ccc(-c3nnc(C(F)F)o3)cc2C1=O [Example 41c] | HDAC6 enzyme (Homo sapiens) | 99%
CC(c1cccc(F)c1)n1ccnc1-c1cc(-c2nnc(C(F)F)o2)ccn1 (stereo not drawn) [Example 92a] | HDAC6 enzyme (Homo sapiens) | 100%
Cn1ccc(Cn2ccnc2-c2cc(F)cc(-c3nnc(C(F)F)o3)c2)n1 [Example 23a] | HDAC6 enzyme (Homo sapiens) | 96%

----------
target: HDAC6 enzyme (Homo sapiens, UniProt Q9UBN7); construct: prepared by transducing full length HDAC6 gene into Sf-9 insect cells; GST; purchased SignalChem; host or cells: Sf-9 insect cells; experiment: HDAC6 enzyme inhibitory assay (HDAC-Glo I/II Assay kit, luminescence); type: biochemical; settings: 10 μM test compound; wells without enzyme = 100% inhibition; read-out: HDAC6 inhibitory rate (%) (10 μM)
Sequence (Q9UBN7 whole entry): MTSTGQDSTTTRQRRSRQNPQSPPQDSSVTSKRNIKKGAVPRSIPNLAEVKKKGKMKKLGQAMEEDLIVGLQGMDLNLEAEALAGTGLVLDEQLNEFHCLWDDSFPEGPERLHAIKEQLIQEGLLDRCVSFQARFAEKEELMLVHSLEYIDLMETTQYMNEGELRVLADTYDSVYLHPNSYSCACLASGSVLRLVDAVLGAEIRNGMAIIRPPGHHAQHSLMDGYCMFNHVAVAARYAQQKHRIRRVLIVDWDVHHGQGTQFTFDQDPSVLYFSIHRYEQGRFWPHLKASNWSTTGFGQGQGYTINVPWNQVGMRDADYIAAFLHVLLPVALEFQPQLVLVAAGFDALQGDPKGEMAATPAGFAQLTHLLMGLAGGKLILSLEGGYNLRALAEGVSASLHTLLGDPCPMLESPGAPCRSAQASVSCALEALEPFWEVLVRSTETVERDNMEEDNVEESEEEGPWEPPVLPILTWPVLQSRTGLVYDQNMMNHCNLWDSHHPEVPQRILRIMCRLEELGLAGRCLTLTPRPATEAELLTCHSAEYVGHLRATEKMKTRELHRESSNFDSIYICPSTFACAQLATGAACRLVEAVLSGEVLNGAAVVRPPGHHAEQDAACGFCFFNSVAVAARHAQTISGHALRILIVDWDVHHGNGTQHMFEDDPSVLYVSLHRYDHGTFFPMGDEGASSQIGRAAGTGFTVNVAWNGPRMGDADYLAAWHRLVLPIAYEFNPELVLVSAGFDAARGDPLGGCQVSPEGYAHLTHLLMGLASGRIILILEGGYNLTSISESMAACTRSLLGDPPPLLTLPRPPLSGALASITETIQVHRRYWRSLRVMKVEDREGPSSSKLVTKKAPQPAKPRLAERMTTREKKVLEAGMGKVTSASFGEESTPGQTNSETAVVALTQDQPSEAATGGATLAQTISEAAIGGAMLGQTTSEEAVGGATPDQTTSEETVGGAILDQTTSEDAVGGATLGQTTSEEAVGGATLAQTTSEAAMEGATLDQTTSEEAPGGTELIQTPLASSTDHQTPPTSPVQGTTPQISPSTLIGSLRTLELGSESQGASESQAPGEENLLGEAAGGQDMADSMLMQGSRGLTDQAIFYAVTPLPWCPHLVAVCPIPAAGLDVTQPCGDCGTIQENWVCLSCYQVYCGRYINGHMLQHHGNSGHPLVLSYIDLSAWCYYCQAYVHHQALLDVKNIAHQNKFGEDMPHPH
Reported inhibition at 10 µM values follow for various compounds

compound | inhibition at 10 µM [%]
Fc1cc(-c2nnc(C(F)F)o2)cc(-c2nccn2Cc2ccccc2Cl)c1 [Example 20a] | 97
Cc1cc(Cn2ccnc2-c2cc(F)cc(-c3nnc(C(F)F)o3)c2)no1 [Example 61a] | 98
O=C1c2cc(-c3nnc(C(F)F)o3)ccc2CN1Nc1ccc(F)c(Cl)c1 [Example 37c] | 99
O=C1NN(c2ccc(F)cc2)Cc2ncc(-c3nnc(C(F)F)o3)cc21 [Example 3b] | 101
CCNC(=O)Cn1ccnc1-c1cc(F)cc(-c2nnc(C(F)F)o2)c1 [Example 32a] | 91
CN(Cc1cccc(C(F)F)c1)N1Cc2ccc(-c3nnc(C(F)F)o3)cc2C1=O [Example 56c] | 99
O=C1NN(c2ccc(F)c(F)c2)Cc2ccc(-c3nnc(C(F)F)o3)cc21 [Example 30b] | 100
COCCOc1cccnc1-c1cc(F)cc(-c2nnc(C(F)F)o2)c1 [Example 13a] | 92
CN1C(=O)c2cc(-c3nnc(C(F)F)o3)ccc2C[C@]1(C)c1ccc(F)c(F)c1 [Example 50b] | 101
FC(F)c1nnc(-c2cncc(-c3nccn3Cc3ccccc3)c2)o1 [Example 37a] | 99
FC(F)c1nnc(-c2cccc(-n3nccc3C3CC3)c2)o1 [Example 2a] | 104
Fc1cccc(Cn2ccnc2-c2cc(-c3nnc(C(F)F)o3)ccn2)c1 [Example 71a] | 100
O=C(OCC(F)F)N(Cc1cnn(C2CC2)c1)N1Cc2ccc(-c3nnc(C(F)F)o3)cc2C1=O [Example 13c] | 99
CN1C(=O)c2cc(-c3nnc(C(F)F)o3)ccc2CN1c1ccc(F)cc1 [Example 10b] | 100
Cc1ccc(C2(C)Oc3ccc(-c4nnc(C(F)F)o4)cc3C(=O)N2C)cc1 (stereo not drawn) [Example 22b] | 100
O=C1NN(C2CCCCC2)Cc2ccc(-c3nnc(C(F)F)o3)cc21 [Example 11b] | 99
CCOC(=O)C(C)CN(C)N1Cc2ccc(-c3nnc(C(F)F)o3)cc2C1=O (stereo not drawn) [Example 43c] | 94
O=C1c2cc(-c3nnc(C(F)F)o3)ccc2CN(c2ccc(F)cc2)N1CC(F)F [Example 48b] | 101
